# Test system: MV4–11 AML cells
# Assay Summary: cells
# Test Conditions: Homo sapiens, MV4-11, 48 h, read-out: IC50 MV4–11 (antiproliferative activity)
Consider the cut-off 6 µM. If the recorded IC50 is strictly smaller, the label is true; if not, the label is false.

NC1CC1c1ccc(NC(=O)OCc2ccccc2)cc1 (stereo not shown): false
Cl.NC1CC1c1cccc(NC(=O)C(Cc2ccccc2)NC(=O)OCc2ccccc2)c1 (stereo not shown): false
CN1CCN(c2cc(C(=O)Nc3ccc(C4CC4N)cc3)ccc2NC(=O)OCc2ccccc2)CC1 (stereo not shown): true

Confirm or reject: IC50 of NC1CC1c1ccc(NC(=O)c2cc(NC(=O)c3ccccc3)ccc2OCC(=O)Nc2ccccc2)cc1 (stereo not shown) lies strictly below 6 µM true

Confirm or reject: IC50 of NC1CC1c1ccc(NC(=O)c2cc(NC(=O)c3ccccc3)ccc2OCC(=O)NCc2ccccc2)cc1 (stereo not shown) lies strictly below 6 µM true

Confirm or reject: IC50 of NC1CC1c1ccc(NC(=O)c2ccc(NC(=O)OCc3ccccc3)cc2)cc1 (stereo not shown) lies strictly below 6 µM true

Confirm or reject: IC50 of NC1CC1c1ccc(NC(=O)c2ccc(Oc3ccccc3)c(NC(=O)OCc3ccccc3)c2)cc1 (stereo not shown) lies strictly below 6 µM true

Confirm or reject: IC50 of NC1CC1c1ccc(NC(=O)c2ccc(-c3ccccc3)cc2NC(=O)OCc2ccccc2)cc1 (stereo not shown) lies strictly below 6 µM false

Confirm or reject: IC50 of NC1CC1c1ccc(NC(=O)c2ccccc2NC(=O)OCc2ccccc2)cc1 (stereo not shown) lies strictly below 6 µM false

Confirm or reject: IC50 of NC1CC1c1ccc(NC(=O)c2ccc(Sc3ccccc3)c(NC(=O)OCc3ccccc3)c2)cc1 (stereo not shown) lies strictly below 6 µM false

====

# IC50 values compiled below
# Assayed Target: human recombinant LSD1/CoREST enzymatic complex (Homo sapiens, UniProt O60341)
# Assay Summary: LSD1 enzyme inhibition assay
# Type: biochemical
# Test Conditions: read-out: LSD1, IC50; LSD1/CoREST, 15 min preincubation; NI = no inhibition

Known IC50 results, listed for orientation:
NC(=O)C1(c2ccccc2)CC1 [4g, 1-Phenylcyclopropane-1-carboxamide]: > 100 µM
NC1(c2ccc(NC(=O)C(Cc3ccccc3)NC(=O)OCc3ccccc3)cc2)CC1 (centres unmarked) [4f]: > 100 µM

Give the measured IC50 for NN1CC1c1ccccc1 (centres unmarked) [4i, 2-phenylaziridin-1-amine] > 100 µM

Give the measured IC50 for NC1(c2ccccc2)CC1 [4e] > 100 µM

Give the measured IC50 for CNC1CC1c1ccccc1 (centres unmarked) [4a, N-methyl-TCP] 10.8 µM

====

# Assayed Target: human MAO A (Homo sapiens)
# Sequence (P21397 whole entry): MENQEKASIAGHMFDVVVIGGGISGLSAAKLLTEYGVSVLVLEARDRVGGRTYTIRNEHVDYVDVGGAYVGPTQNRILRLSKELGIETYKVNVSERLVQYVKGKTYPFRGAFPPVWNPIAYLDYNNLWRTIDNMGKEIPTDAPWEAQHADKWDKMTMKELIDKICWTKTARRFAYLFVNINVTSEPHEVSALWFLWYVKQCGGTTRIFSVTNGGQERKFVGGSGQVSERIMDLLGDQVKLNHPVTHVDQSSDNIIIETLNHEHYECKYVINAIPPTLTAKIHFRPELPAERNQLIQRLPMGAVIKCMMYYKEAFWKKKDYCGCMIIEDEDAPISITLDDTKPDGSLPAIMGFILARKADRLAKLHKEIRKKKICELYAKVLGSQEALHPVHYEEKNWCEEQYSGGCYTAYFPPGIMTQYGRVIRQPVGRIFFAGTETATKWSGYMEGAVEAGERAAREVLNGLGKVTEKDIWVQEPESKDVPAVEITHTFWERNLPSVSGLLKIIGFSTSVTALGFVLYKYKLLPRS
# Assay Summary: Anti-MAO assay
# Assay type: biochemical
# Test Conditions: read-out: % inhibition at 100 μM MAO A
# inhibition at 100 µM values compiled below
Give your result in % as a bare value.

Known inhibition at 100 µM results, listed for orientation:
CN1CCN(c2cc(C(=O)Nc3ccc(C4CC4N)cc3)ccc2NC(=O)OCc2ccccc2)CC1 (stereo not shown) [3c]: 69
NC1CC1c1ccc(NC(=O)OCc2ccccc2)cc1 (stereo not shown) [1b]: 96
NC1CC1c1ccc(NC(=O)c2ccc(NC(=O)OCc3ccccc3)cc2)cc1 (stereo not shown) [3a]: 37

Continue with the molecule presented below.
Give the measured inhibition at 100 µM for NC1CC1c1ccc(NC(=O)c2ccccc2NC(=O)OCc2ccccc2)cc1 (stereo not shown) [3j] 72

====

# Tested on: MV4–11 AML cells
# Test Conditions: read-out: IC50 MV4–11 (antiproliferative activity), 48 h
Observable: IC50 (µM)
Give your result in µM as a bare value.

Look up MV4–11 AML cells data: IC50 of Cl.NC1CC1c1ccc(NC(=O)c2ccc(Br)cc2NC(=O)OCc2ccccc2)cc1 (centres unmarked) , then report it. 6.2

====

# Assay Summary: Microsomal stability in liver microsomes
# Assay type: in vitro ADME
# Test Conditions: human, pH 7.4
Observable: microsomal CLint at 1 μM (µL/min/mg)
Give your result in µL/min/mg as a bare value.

Give the measured microsomal CLint at 1 μM for NC1CC1c1ccc(NC(=O)c2ccc(NC(=O)OCc3ccccc3)cc2)cc1 (stereo not shown) 6.7

====

# Assay Summary: Microsomal stability in liver microsomes
# Format: in vitro ADME
# Test Conditions: mouse, pH 7.4
Observable: microsomal CLint at 1 μM (µL/min/mg)
Give your result in µL/min/mg as a bare value.

Give the measured microsomal CLint at 1 μM for NC1CC1c1ccc(NC(=O)c2ccc(NC(=O)OCc3ccccc3)cc2)cc1 (stereo not shown) 7.1

====

# pIC50 values compiled below
# Assayed Target: human recombinant LSD1/CoREST enzymatic complex (Homo sapiens, UniProt O60341)
# Assay Summary: LSD1 enzyme inhibition assay
# Format: biochemical
A value of pIC50 is the negative decimal logarithm of a concentration given in moles per litre.

Known pIC50 results, listed for orientation:
Cl.NC1CC1c1cccc(NC(=O)C(Cc2ccccc2)NC(=O)OCc2ccccc2)c1 (stereo not drawn): 4.74
NC1CC1c1ccc(NC(=O)c2cc(NC(=O)c3ccccc3)ccc2OCC(=O)Nc2ccccc2)cc1 (stereo not drawn): 5.41

Continue with the compound presented below.
Give the measured pIC50 for CN1CCN(c2cc(C(=O)Nc3ccc(C4CC4N)cc3)ccc2NC(=O)OCc2ccccc2)CC1 (stereo not drawn) 7.05

====

# IC50 values compiled below
# Assayed Target: human recombinant LSD1/CoREST enzymatic complex (Homo sapiens, UniProt O60341)
# Assay Summary: LSD1 enzyme inhibition assay
# Format: biochemical
# Test Conditions: read-out: LSD1, IC50; LSD1/CoREST, 15 min preincubation; NI = no inhibition

Known IC50 results, listed for orientation:
NCC1(c2ccccc2)CC1: > 100 µM
NC(=O)C1CC1c1ccccc1 (stereo not drawn) [4c, 2-Phenylcyclopropane-1-carboxamide]: > 100 µM

Continue with the compound presented below.
Look up human recombinant LSD1/CoREST enzymatic complex (Homo sapiens, UniProt O60341) data: IC50 of NNC(=O)C1CC1c1ccccc1 (stereo not drawn) [4d, 2-phenylcyclopropane-1-carbohydrazide] , then report it. > 100 µM
